# target-desc: Histone-lysine N-methyltransferase NSD2 (Homo sapiens)
# test-method-notes: NSD2 histone methyltransferase activity blockers – biochemical, plate reader, single point, primary screen (AID 624260);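 also: inhibitors reduce the monomethyl H3K36 fluorescence signal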
# condition-label: NSD2-SET H3K36me1 DELFIA fluorescence, at 12.5 µM, active compounds read high
In all, about 44,000 compounds went through this assay and about 30 (0.07%) were called active. Not shown: some 1% with an inconclusive outcome. This is one part of a sample in which actives are shown more often than they occur.
quantity-measured: inhibition (%)
Kindly provide the numeric value in % only, without the unit symbol.

Please report the recorded inhibition for COc1ccccc1CNC(=O)C[C@@H]1C[C@@H]2c3cc(NC(=O)C4CCOCC4)ccc3O[C@@H]2[C@@H](CO)O1 .
-2.77

Need inhibition of C[C@@H]1CN([C@@H](C)CO)C(=O)c2cc(C#CC3CCCCC3)cnc2O[C@H]1CN(C)C(=O)Cc1ccccn1 , thanks.
-1.35

Give the measured inhibition of CCC(=O)N(C)C[C@@H]1Oc2cc(-c3ccc(OC)cc3)ccc2S(=O)(=O)N([C@@H](C)CO)C[C@H]1C .
1.75

Return reported inhibition; argument: C/C=C/c1ccc2c(c1)O[C@@H](CN(C)C(=O)C1CCOCC1)[C@H](C)CN([C@H](C)CO)S2(=O)=O
12.8

Where these numbers come from: PubChem BioAssay AID624260
